Listed next: entries and their corresponding Change in Cl- current.
measured-on: GABA-A receptor; alpha-1/beta-2/gamma-2 (Homo sapiens) (UniProt P14867+P47870+P18507)
procedure-details: In vitro GABA-mediated chloride current in A293 cells expressing GABA-A benzodiazepine receptor alpha-1-beta-2-gamma-2 subunits at 5 uM
Assay type: functional, cell-based
condition-notes: HEK293
property-name: Change in Cl- current

- smiles-code: "C[C@@H]1CN(C(=O)N2Cc3c(C(=O)OC(C)(C)C)ncn3-c3ccccc32)C[C@H](C)N1C"
  quantitative-readout: -0.1
- smiles-code: "C[C@@H]1CN(C(=O)N2Cc3c(C(=O)OC(C)(C)C)ncn3-c3ccc(F)cc32)C[C@H](C)N1C"
  quantitative-readout: -0.1
- smiles-code: "Cc1ccc2c(c1)N(C(=O)N1C[C@@H](C)N(C)[C@@H](C)C1)Cc1c(C(=O)OC(C)(C)C)ncn1-2"
  quantitative-readout: 1.37

----------
measured-on: GABA-A receptor; anion channel (Rattus norvegicus) (UniProt O09028+P15431+P18506+P18508+P19969+P20236+P23574+P23576+P28471+P28473+P30191+P62813+P63079+P63138+Q91ZM7+Q9ES14)
procedure-details: Shift in [35S]TBPS binding to GABA-A Benzodiazepine receptor of rat brain membrane
Listed next: entries and their corresponding Shift.

- compound: "CC1CN(C(=O)N2Cc3c(C(=O)OC(C)(C)C)ncn3-c3ccc(Cl)cc32)CCN1 (configuration not stated)"
  Shift: 0.18
- compound: "CC(C)(C)OC(=O)c1ncn2c1CN(C(=O)N1CCNCC1)c1ccccc1-2.Cl"
  Shift: 0.04
- compound: "CC1(C)CN(C(=O)N2Cc3c(C(=O)OC(C)(C)C)ncn3-c3ccc(Cl)cc32)CC(C)(C)N1"
  Shift: 0.77
- compound: "CC(C)(C)OC(=O)c1ncn2c1CN(C(=O)N1CCN(C3CC3)CC1)c1cc(Cl)ccc1-2"
  Shift: 0.76
- compound: "C[C@@H]1CN(C(=O)N2Cc3c(C(=O)OC(C)(C)C)ncn3-c3ccc(Cl)cc32)C[C@H](C)N1S(C)(=O)=O.ClCCl"
  Shift: 0.76
- compound: "CN1CC2CC1CN2C(=O)N1Cc2c(C(=O)OC(C)(C)C)ncn2-c2ccc(Cl)cc21 (configuration not stated)"
  Shift: 0.68
- compound: "C[C@@H]1CN(C(=O)N2Cc3c(C(=O)OC(C)(C)C)ncn3-c3ccc(C(F)(F)F)cc32)C[C@@H](C)N1"
  Shift: 0.68
- compound: "Cc1ccc2c(c1)N(C(=O)N1C[C@@H](C)N(C)[C@@H](C)C1)Cc1c(C(=O)OC(C)(C)C)ncn1-2"
  Shift: 0.11
- compound: "C[C@H]1CN(C(=O)N2Cc3c(C(=O)OC(C)(C)C)ncn3-c3ccc(Cl)cc32)C[C@H](C)N1"
  Shift: 0.37
- compound: "C[C@H]1NCCN(C(=O)N2Cc3c(C(=O)OC(C)(C)C)ncn3-c3ccc(Cl)cc32)[C@H]1C"
  Shift: 0.27
- compound: "Cc1ccc2c(c1)N(C(=O)N1CCN[C@@H](C)C1)Cc1c(C(=O)OC(C)(C)C)ncn1-2"
  Shift: 0.59
- compound: "CCCC(=O)O.C[C@@H]1CN(C(=O)N2Cc3c(C(=O)OC(C)(C)C)ncn3-c3ccc(Cl)cc32)C[C@H](C)N1"
  Shift: 0.48

----------
measured-on: GABA-A receptor; alpha-1/beta-2/gamma-2 (Homo sapiens) (UniProt P14867+P47870+P18507)
procedure-details: In vitro GABA-mediated chloride current in A293 cells expressing GABA-A benzodiazepine receptor alpha-1-beta-2-gamma-2 subunits at 5 uM
Format: functional, cell-based
condition-notes: HEK293
Listed next: entries and their corresponding Change in Cl- current.
property-name: Change in Cl- current

- molecule: "CC1CN(C(=O)N2Cc3c(C(=O)OC(C)(C)C)ncn3-c3ccc(Cl)cc32)CCN1 (stereo not given)"
  property-name: "Change in Cl- current"
  quantitative-readout: 0.5
- molecule: "C[C@H]1NCCN(C(=O)N2Cc3c(C(=O)OC(C)(C)C)ncn3-c3ccc(Cl)cc32)[C@H]1C"
  property-name: "Change in Cl- current"
  quantitative-readout: 0.7
- molecule: "CC(C)(C)OC(=O)c1ncn2c1CN(C(=O)N1CCNCC1)c1cc(Cl)ccc1-2"
  property-name: "Change in Cl- current"
  quantitative-readout: 0.4
- molecule: "C[C@H]1CN(C(=O)N2Cc3c(C(=O)OC(C)(C)C)ncn3-c3ccc(C(F)(F)F)cc32)C[C@H](C)N1"
  property-name: "Change in Cl- current"
  quantitative-readout: 0.5
- molecule: "CC1CNCC(C)N1C(=O)N1Cc2c(C(=O)OC(C)(C)C)ncn2-c2ccc(F)cc21 (stereo not given)"
  property-name: "Change in Cl- current"
  quantitative-readout: 0.72
- molecule: "CC(C)(C)OC(=O)c1ncn2c1CN(C(=O)N1CCN(c3ccccn3)CC1)c1cc(Cl)ccc1-2"
  property-name: "Change in Cl- current"
  quantitative-readout: 0.35
- molecule: "C[C@@H]1CN(C(=O)N2Cc3c(C(=O)OC(C)(C)C)ncn3-c3ccccc32)C[C@H](C)N1C"
  property-name: "Change in Cl- current"
  quantitative-readout: 0.5
- molecule: "C[C@H]1CN(C(=O)N2Cc3c(C(=O)OC(C)(C)C)ncn3-c3ccc(Cl)cc32)CCN1"
  property-name: "Change in Cl- current"
  quantitative-readout: 0.8
- molecule: "C[C@@H]1CN(C(=O)N2Cc3c(C(=O)OC(C)(C)C)ncn3-c3ccccc32)C[C@H](C)N1"
  property-name: "Change in Cl- current"
  quantitative-readout: 0.5
- molecule: "C[C@@H]1NCCN(C(=O)N2Cc3c(C(=O)OC(C)(C)C)ncn3-c3ccc(Cl)cc32)[C@H]1C"
  property-name: "Change in Cl- current"
  quantitative-readout: 0.68
- molecule: "Cc1ccc2c(c1)N(C(=O)N1CCN[C@H](C)C1)Cc1c(C(=O)OC(C)(C)C)ncn1-2"
  property-name: "Change in Cl- current"
  quantitative-readout: 0.8
- molecule: "CC(C)(C)OC(=O)c1ncn2c1CN(C(=O)N1CC3CC1CN3)c1cc(Cl)ccc1-2 (stereo not given)"
  property-name: "Change in Cl- current"
  quantitative-readout: 0.3
- molecule: "CC1(C)CN(C(=O)N2Cc3c(C(=O)OC(C)(C)C)ncn3-c3ccc(Cl)cc32)CCN1"
  property-name: "Change in Cl- current"
  quantitative-readout: 0.33
- molecule: "Cc1ccc2c(c1)N(C(=O)N1CCNCC1)Cc1c(C(=O)OC(C)(C)C)ncn1-2"
  property-name: "Change in Cl- current"
  quantitative-readout: 0.55
- molecule: "CN1C2CCC1CN(C(=O)N1Cc3c(C(=O)OC(C)(C)C)ncn3-c3ccc(Cl)cc31)C2"
  property-name: "Change in Cl- current"
  quantitative-readout: 2.1

----------
measured-on: GABA-A receptor; anion channel (Rattus norvegicus) (UniProt O09028+P15431+P18506+P18508+P19969+P20236+P23574+P23576+P28471+P28473+P30191+P62813+P63079+P63138+Q91ZM7+Q9ES14)
procedure-details: Displacement of [3H]flunitrazepam from GABA-A benzodiazepine receptor of rat cortical membranes
Assay type: cell membranes
Design: concentration or dose not given beside the values
condition-notes: Membrane, concentration not given here
Given measured inhibition, output y if it is greater than or equal to 70% and n if not.

- smiles-code: "CC(C)N1[C@H](C)CN(C(=O)N2Cc3c(C(=O)OC(C)(C)C)ncn3-c3ccc(Cl)cc32)C[C@@H]1C"
  qualitative-label: "y"
- smiles-code: "C[C@@H]1CN(C(=O)N2Cc3c(C(=O)OC(C)(C)C)ncn3-c3ccccc32)C[C@H](C)N1"
  qualitative-label: "y"
- smiles-code: "C[C@@H]1CN(C(=O)N2Cc3c(C(=O)OC(C)(C)C)ncn3-c3ccc(F)cc32)C[C@H](C)N1"
  qualitative-label: "y"
- smiles-code: "C[C@H]1CN(C(=O)N2Cc3c(C(=O)OC(C)(C)C)ncn3-c3ccc(Cl)cc32)CCN1"
  qualitative-label: "y"
- smiles-code: "CC(C)(C)OC(=O)c1ncn2c1CN(C(=O)N1CCN(CC(F)(F)F)CC1)c1cc(Cl)ccc1-2"
  qualitative-label: "n"
- smiles-code: "C[C@@H]1NCCN(C(=O)N2Cc3c(C(=O)OC(C)(C)C)ncn3-c3ccc(Cl)cc32)[C@H]1C"
  qualitative-label: "n"
- smiles-code: "CN1CCN(C(=O)N2Cc3c(C(=O)OC(C)(C)C)ncn3-c3ccc(Cl)cc32)CC1(C)C"
  qualitative-label: "n"
- smiles-code: "C[C@@H]1CN(C(=O)N2Cc3c(C(=O)OC(C)(C)C)ncn3-c3ccc(C(F)(F)F)cc32)C[C@H](C)N1"
  qualitative-label: "n"
- smiles-code: "CC(C)(C)OC(=O)c1ncn2c1CN(C(=O)N1CCN(C(C)(C)C)CC1)c1cc(Cl)ccc1-2"
  qualitative-label: "n"
